# TGT: T1, human IL-10 receptor (hIL-10R alpha and beta chains) on HEK-Blue IL-10 reporter cells (human, UniProt Q13651 22-578; Q08334 20-325)
# T1 sequence 1: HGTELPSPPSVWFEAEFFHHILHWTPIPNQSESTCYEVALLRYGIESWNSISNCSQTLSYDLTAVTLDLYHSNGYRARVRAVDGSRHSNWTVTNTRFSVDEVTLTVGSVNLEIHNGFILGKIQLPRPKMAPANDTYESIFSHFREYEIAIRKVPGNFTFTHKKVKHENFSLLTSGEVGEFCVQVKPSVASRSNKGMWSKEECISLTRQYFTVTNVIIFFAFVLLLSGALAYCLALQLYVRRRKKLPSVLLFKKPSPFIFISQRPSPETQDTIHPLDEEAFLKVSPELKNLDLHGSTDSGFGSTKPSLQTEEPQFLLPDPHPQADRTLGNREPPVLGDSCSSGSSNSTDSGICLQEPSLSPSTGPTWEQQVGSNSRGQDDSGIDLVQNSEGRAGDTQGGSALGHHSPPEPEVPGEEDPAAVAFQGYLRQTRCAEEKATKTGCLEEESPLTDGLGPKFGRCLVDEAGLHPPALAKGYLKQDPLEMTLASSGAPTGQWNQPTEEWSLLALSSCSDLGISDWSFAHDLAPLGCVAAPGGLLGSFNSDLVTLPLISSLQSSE
# T1 sequence 2: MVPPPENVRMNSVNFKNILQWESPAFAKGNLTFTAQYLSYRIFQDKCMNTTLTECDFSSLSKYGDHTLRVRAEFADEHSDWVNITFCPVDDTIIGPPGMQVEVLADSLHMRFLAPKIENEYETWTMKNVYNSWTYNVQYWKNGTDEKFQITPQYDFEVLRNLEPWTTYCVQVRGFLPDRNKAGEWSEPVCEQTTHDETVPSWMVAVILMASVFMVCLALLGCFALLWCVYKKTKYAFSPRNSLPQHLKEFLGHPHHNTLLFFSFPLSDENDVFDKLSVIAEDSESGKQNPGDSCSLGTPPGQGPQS
# PROCEDURE_SUMMARY: cell-based or functional assay
Entries and their Abs 630 (100 nM)
RESULT_TYPE: Abs 630 (100 nM) (Abs 630)

[[record]]
binder = "IL10R binding molecule of SEQ ID NO: 323 (bispecific antibody) QVQLQESGGGSVQAGGSLRLSCAASRYTYNSYCMGWFRQAPGKEREGVATIDSDGMTRYADSVKGRFTISKDNAKNTLYLQMNSLKPEDTAMYYCAADADCTIAAMTTNPLGQGTQVTVSSGGGSQVQLQESGGGSVQAGGSLRLSCTVSGYTYSSNCMGWFRQAPGKEREGVATIYTGGGNTYYADSVKGRFTISQDNAKNTVYLQMNNLKPEDTAMYYCAAEPLSRVYGGSCPTPTFDYWGQGTQVTVSSASHHHHHH"
measured = 0.38

[[record]]
binder = "IL10R binding molecule of SEQ ID NO: 283 (bispecific antibody) QVQLQESGGGSVQAGGSLRLSCAVSGYAYSTYCMGWFRQAPGKEREGVAAIDSGGSTSYADSVKGRFTISKDNAKNTLYLRMNSLKPEDTAMYYCAAVPPPPDGGSCLFLGPEIKVSKADFRYWGQGTQVTVSSGGGSQVQLQESGGGSVQTGGSLRLSCAASGYTYLRGCMGWFRQAPGKEREGVAVMDVVGDRRSYIDSVKGRFTISRDNAANSVYLQMDNLKPEDTAMYYCTAGPNCVGWRSGLDYWGQGTQVTVSSASHHHHHH"
measured = 0.39

[[record]]
binder = "IL10R binding molecule of SEQ ID NO: 333 (bispecific antibody) QVQLQESGGGSVEAGGSLRLSCAASGYTHSSYCMGWFRQAPGKEREGVAAIDVDGSTTYADSVKGRFTISKDNAKNTLYLQMNSLKPEDTGMYYCAAEFADCSSNYFLPPGAVRYWGQGTQVTVSSGGGSQVQLQESGGGSVQAGGSLRLSCAASRYLYSIDYMAWFRQSPGKEREPVAVIYTASGATFYPDSVKGRFTISQDNAKMTVYLQMNSLKSEDTAMYYCAAVRKTDSYLFDAQSFTYWGQGTQVTVSSASHHHHHH"
measured = 0.54

